Quick reference for EC50 among some substances
target: human GLP-1 receptor (Homo sapiens, UniProt P43220); assay: Functional GLP-1 receptor assay, in vitro potency (CRE luciferase; whole cells); format: cell-based; conditions: BHK cells expressing human GLP-1 receptor, 0% HSA; read-out: GLP1R CRE luc 0% HSA EC50 Mean Value
Sequence (P43220 24-463): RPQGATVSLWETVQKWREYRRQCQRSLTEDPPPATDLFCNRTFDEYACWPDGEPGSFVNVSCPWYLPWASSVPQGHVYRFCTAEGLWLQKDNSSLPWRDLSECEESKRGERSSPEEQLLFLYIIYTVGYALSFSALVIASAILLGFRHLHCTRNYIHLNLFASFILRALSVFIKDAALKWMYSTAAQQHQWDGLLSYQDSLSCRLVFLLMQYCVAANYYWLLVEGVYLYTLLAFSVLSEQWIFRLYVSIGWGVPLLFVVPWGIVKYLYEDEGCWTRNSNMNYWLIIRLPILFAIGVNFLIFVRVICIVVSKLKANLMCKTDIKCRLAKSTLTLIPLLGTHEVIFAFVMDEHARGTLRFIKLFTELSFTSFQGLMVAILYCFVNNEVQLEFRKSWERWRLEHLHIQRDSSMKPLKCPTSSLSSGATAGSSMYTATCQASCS
Where no end group is shown, it is not given here.
Your answer should be a plain number; it is taken to be in nM.

Example substances with recorded EC50:
# substance, tested on, unit info, EC50
measured = [
    ("H-HAEGTFTSDVSSYLEGQAAKEFIAWLVEKVGEFLEK-OH [Compound 128]", "human GLP-1 receptor (Homo sapiens, UniProt P43220)", "nM", 0.041),
    ("HAEGTFTSDVSSYLEGQAAKEFIAWLVEKVKEHL-NH2 [Compound 107]", "human GLP-1 receptor (Homo sapiens, UniProt P43220)", "nM", 0.04),
]

Read the next record carefully.
Task: Name the recorded EC50 of the item H-HAEGTFTSDVSSYLEGEAVREFIAWLVHRVREFLEK-OH [Compound 139] in your answer.
Result: 0.039
